All figures here come from patent US12291518B2.

# Target: THR alpha-LBD (Homo sapiens, UniProt P10827)
# Construct: except that THR alpha-LBD of a final concentration 0.25 nM was used; purchased Invitrogen PV4687
# Sequence (P10827 163-410 isoform P10827-2 limits assumed, other chains not shown): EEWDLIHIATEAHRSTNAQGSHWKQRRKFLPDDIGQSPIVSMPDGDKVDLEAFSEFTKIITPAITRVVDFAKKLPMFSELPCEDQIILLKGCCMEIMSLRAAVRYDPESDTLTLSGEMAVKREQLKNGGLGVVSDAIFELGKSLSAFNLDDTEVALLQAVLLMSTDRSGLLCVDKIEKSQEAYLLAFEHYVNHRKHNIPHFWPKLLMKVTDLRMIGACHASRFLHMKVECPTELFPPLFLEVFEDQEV
# Assay method text: THR-α Coactivator Peptide Recruitment Assay (LanthaScreen TR-FRET)
# Assay type: biochemical
# Run conditions: TR-FRET coactivator recruitment, THR alpha-LBD 0.25 nM

>  <Molecule>
O=c1[nH]c(=O)n(-c2cc(Cl)c(Oc3ccc(O)c([S@TB3](=O)(=O)N4CCOCC4)c3)c(Cl)c2)nc1C(F)F [Compound 15]

>  <THRα Emax>
B (40~85)

$$$$
>  <Molecule>
O=c1[nH]c(=O)n(-c2cc(Cl)c(Oc3cc(S(=O)(=O)N4CC[C@H](O)C4)c(O)cn3)c(Cl)c2)nc1C(F)F [Compound 108]

>  <THRα Emax>
B (40~85)

$$$$
>  <Molecule>
O=C(NC1CC(F)(F)C1)c1cc(Oc2c(Cl)cc(-n3nc(C(F)(F)F)c(=O)[nH]c3=O)cc2Cl)ccc1O [Compound 3]

>  <THRα Emax>
B (40~85)

$$$$
>  <Molecule>
O=c1[nH]c(=O)n(-c2cc(Cl)c(Oc3ccc(O)c(S(=O)(=O)NC[C@H]4C[C@@H](O)C4)c3)c(Cl)c2)nc1C(F)F [Compound 44]

>  <THRα Emax>
A (85~110)

$$$$
>  <Molecule>
O=c1[nH]c(=O)n(-c2cc(Cl)c(Oc3ccc(O)c(S(=O)(=O)N[C@@H]4CC[C@@H](O)C4)c3)c(Cl)c2)nc1C(F)F (racemic) [Compound 75]

>  <THRα Emax>
B (40~85)

$$$$
>  <Molecule>
O=C(c1cc(Oc2c(Cl)cc(-n3nc(Cl)c(=O)[nH]c3=O)cc2Cl)ccc1O)N1C[C@@H]2CC[C@H]1C2 (single isomer, unassigned) [Compound 8]

>  <THRα Emax>
B (40~85)

$$$$
>  <Molecule>
O=c1[nH]c(=O)n(-c2cc(Cl)c(Oc3cc(S(=O)(=O)N4CC(O)C4)c(O)cn3)c(Cl)c2)nc1C(F)F [Compound 107]

>  <THRα Emax>
B (40~85)

$$$$
>  <Molecule>
CC(C)c1cc(Oc2c(Cl)cc(-n3nc(C#N)c(=O)[nH]c3=O)cc2Cl)n[nH]c1=O [MGL3196, MGL-3196, reference compound]

>  <THRα Emax>
B (40~85)

$$$$
>  <Molecule>
O=C(NC1CCC1)c1cc(Oc2c(Cl)cc(-n3nc(C(F)F)c(=O)[nH]c3=O)cc2Cl)ccc1O [Compound 1]

>  <THRα Emax>
B (40~85)

$$$$
>  <Molecule>
CO[C@H]1C[C@@H](NS(=O)(=O)c2cc(Oc3c(Cl)cc(-n4nc(C(F)F)c(=O)[nH]c4=O)cc3Cl)ccc2O)C1 [Compound 37]

>  <THRα Emax>
A (85~110)

$$$$
>  <Molecule>
N#Cc1nn(-c2cc(Cl)c(Oc3cc(S(=O)(=O)NC4CC4)c(O)cn3)c(Cl)c2)c(=O)[nH]c1=O [Compound 114]

>  <THRα Emax>
A (85~110)

$$$$
>  <Molecule>
CO[C@H]1C[C@H](NS(=O)(=O)c2cc(Oc3c(Cl)cc(-n4nc(C(F)F)c(=O)[nH]c4=O)cc3Cl)ccc2O)C1 [Compound 36]

>  <THRα Emax>
B (40~85)

$$$$
>  <Molecule>
O=C(NCC1(NS(=O)(=O)c2cc(Oc3c(Cl)cc(-n4nc(C(F)F)c(=O)[nH]c4=O)cc3Cl)ccc2O)CC1)C1CC1 [Compound 84]

>  <THRα Emax>
A (85~110)

$$$$
>  <Molecule>
CS(=O)(=O)N1CC(NS(=O)(=O)c2cc(Oc3c(Cl)cc(-n4nc(C(F)F)c(=O)[nH]c4=O)cc3Cl)ccc2O)C1 [Compound 54]

>  <THRα Emax>
B (40~85)

$$$$
>  <Molecule>
O=c1[nH]c(=O)n(-c2cc(Cl)c(Oc3ccc(O)c(S(=O)(=O)N4CC[C@H](O)C4)c3)c(Cl)c2)nc1C(F)F [Compound 77]

>  <THRα Emax>
A (85~110)

$$$$
>  <Molecule>
CNS(=O)(=O)c1cc(Oc2c(Cl)cc(-n3nc(C(F)F)c(=O)[nH]c3=O)cc2Cl)ccc1O [Compound 13]

>  <THRα Emax>
A (85~110)

$$$$
>  <Molecule>
NS(=O)(=O)c1cc(Oc2c(Cl)cc(-n3nc(C(F)F)c(=O)[nH]c3=O)cc2Cl)ccc1O [Compound 68]

>  <THRα Emax>
A (85~110)

$$$$
